# EXPERIMENTAL_TARGET: BCL6 (Homo sapiens)
# Construct: endogenous in cells; host or cells: T47D breast cancer epithelial cells
# EXPERIMENT_NOTES: Immunofluorescence protocol for high content imaging of BCL6 (degradation) in T47D cells, 3 days compound treatment
# Type: cell-based
# RECORDED_CONDITIONS: T47D cells, 3 days compound treatment, read-out: Mean DC50 (nM)* category
# Method: Immunofluorescence Protocol for High Content Imaging of BCL6 T47D cells were seeded in 100 μl volume of RPMI1640-10% FBS in a 96-well black/clear bottom plates for adherent lines (Corning #3904). Day 1. T47D breast cancer epithelial cells were seeded at a density so that confluence is ˜70-90% at endpoint. Cells were seeded at 7K/0.1 ml/well the morning prior to the addition of exemplary bifunctional degradation compounds. Day 2. […] Plates were equilibrated to room temperature prior to reading. […]
QUANTITY_NAME: DC50

Q: What measured DC50 goes with CNC(=O)COc1cc2cc(Nc3nc(N4CCC(F)(CN5CCC6(CC5)CCN(c5cccc7c5C(=O)N(C5CCC(=O)NC5=O)C7=O)CC6)CC4)ncc3Cl)ccc2n(C(C)C)c1=O (stereo not shown) [Compound 62] ?
Ans: < 10 nM

Q: Please give the result for CNC(=O)COc1cc2cc(Nc3nc(N4CCC(CN5CCC6(CC5)CC(c5ccc7c(c5)C(=O)N(C5CCC(=O)NC5=O)C7=O)C6)CC4)ncc3Cl)ccc2n(C(C)C)c1=O (stereo not shown) [Compound 150] too.
Ans: 10 to 50 nM

Q: Try CNC(=O)COc1cc2cc(Nc3nc(N4CCC(CN5CCC6(CC5)CN(c5cc(OC)c7c(c5)C(=O)N(C5CCC(=O)NC5=O)C7=O)C6)CC4)ncc3Cl)ccc2n(C(C)C)c1=O (stereo not shown) [Compound 83] next.
Ans: < 10 nM

Q: Next compound: CNC(=O)COc1cc2cc(Nc3nc(N4CCC(OC5CCC6(CC5)CN(c5ccc7c(c5)C(=O)N(C5CCC(=O)NC5=O)C7)C6)CC4)ncc3Cl)ccc2n(C(C)C)c1=O (stereo not shown) [Compound 69]
Ans: < 10 nM

Q: Now consider CNC(=O)COc1cc2cc(Nc3nc(N4CCC(O[C@H]5C[C@H](N6CCN(c7ccc8c(c7Cl)CN(C7CCC(=O)NC7=O)C8=O)[C@H](C)C6)C5)CC4)ncc3Cl)ccc2n(C(C)C)c1=O (stereo partly shown) [Compound 202] and answer again.
Ans: < 10 nM

Q: Entry to check: CNC(=O)COc1cc2cc(Nc3nc(N4CCC(C(C)(C)N5CCC6(CC5)CN(c5cccc7c5CN(C5CCC(=O)NC5=O)C7=O)C6)CC4)ncc3Cl)ccc2n(C(C)C)c1=O (stereo not shown) [Compound 59]
Ans: < 10 nM

Q: Now the same for CNC(=O)COc1cc2cc(Nc3nc(N4CCC(F)(CN5CC6(CCN(c7cc8c(cc7F)C(=O)N(C7CCC(=O)NC7=O)C8)CC6)C5)CC4)ncc3Cl)ccc2n(C(C)C)c1=O (stereo not shown) [Compound 106]
Ans: < 10 nM

Q: Try CNC(=O)COc1cc2cc(Nc3nc(N4CCC(OC5CCC(N6CCC(c7cccc8c7C(=O)N(C7CCC(=O)NC7=O)C8=O)CC6)C5)CC4)ncc3Cl)ccc2n(C(C)C)c1=O (stereo not shown) [Compound 148] next.
Ans: 50 to 100 nM

Q: Query CNC(=O)COc1cc2cc(Nc3nc(N4CCC(CN5CCC6(CC5)CN(c5ccc7c(c5F)CN(C5CCC(=O)NC5=O)C7=O)C6)CC4)ncc3Cl)ccc2n(C(C)C)c1=O (stereo not shown) [Compound 71] next
Ans: < 10 nM

Q: Next up: CNC(=O)COc1cc2cc(Nc3nc(N4CCC(O[C@H]5C[C@H](N6C[C@@H](C)N(c7ccc8c(c7)CN(C7CCC(=O)NC7=O)C8=O)[C@H](C)C6)C5)CC4)ncc3Cl)ccc2n(C(C)C)c1=O (relative stereo) [Compound 179]
Ans: < 10 nM
